Source listed as PubChem BioAssay AID2685.

experiment description: qHTS Assay for Lipid Storage Modulators in Drosophila S3 Cells;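 also: cells counted by Cell Tracker Red CMTPX staining in the red channel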
reported conditions: BODIPY lipid droplet fluorescence, 18-24 h, cells fed with added oleic acid; measured here: cell count max response
About 2,100 (0.66%) of roughly 320,000 compounds were called active. Not shown: some 53% with an inconclusive outcome. The sample as a whole holds a higher share of actives than the screen did.
parameter: cell number change (%)
Give the quantity in %, number only.

State the recorded cell number change for this entry: `O=C(NCC1CC1)c1onc(CSc2ccc(F)cc2)c1C(=O)NCC1CC1`
10.6

State the recorded cell number change for this entry: `COCCNC(=O)c1onc(CSc2nc3ccccc3[nH]2)c1C(=O)NCCOC`
-7.78

State the recorded cell number change for this entry: O=C(NC1CCS(=O)(=O)C1)c1cccc(Br)c1 (centres undefined)
-19.9

State the recorded cell number change for this entry: CC(CCc1ccccc1)NC(=O)CN1CCN(c2ccc(O)cc2)CC1 (centres undefined)
0.962

State the recorded cell number change for this entry: `C=CCn1c(C)c(C(C)=O)c(N2CCOCC2)nc1=S`
-4.96

State the recorded cell number change for this entry: `CC(C)(C)c1nnc(NC(=O)c2ccc3c(c2)OCO3)s1`
5.88

State the recorded cell number change for this entry: `O=C(NCc1ccccc1)c1onc(CSc2nc3ccccc3[nH]2)c1C(=O)NCc1ccccc1`
-26.6

State the recorded cell number change for this entry: `O=C(O)c1cccnc1NC1CCCC1`
-16

State the recorded cell number change for this entry: `C=CCNC(=O)c1onc(CSc2nc3ccccc3[nH]2)c1C(=O)NCC=C`
-6.29

State the recorded cell number change for this entry: `Cc1noc(C)c1C(=O)OCC(=O)Nc1cccc(S(=O)(=O)N(C)C)c1`
-1.55

State the recorded cell number change for this entry: `COc1cc(C(=O)NCc2nnc(SCC(=O)Nc3cccc(C(F)(F)F)c3)o2)cc(OC)c1OC`
-27.5

State the recorded cell number change for this entry: `COc1ccc(-n2c(O)c(/C=N/NS(=O)(=O)c3ccc(C)cc3)c3ccccc3c2=O)cc1OC`
-21

State the recorded cell number change for this entry: `COc1ccccc1NC(=O)Nc1ccc(Br)cn1`
-23.3

State the recorded cell number change for this entry: `CCOC(=O)c1ccc(NC(=O)CSc2nnc(CNC(=O)c3ccco3)o2)cc1`
-21.5

State the recorded cell number change for this entry: `COc1nc(NCCN2CCOCC2)nc(Nc2ccccc2)n1`
-13.7

State the recorded cell number change for this entry: `Cc1ccc(-n2c(O)c(/C=N/n3cnnc3)c3ccccc3c2=O)cc1`
9.27

State the recorded cell number change for this entry: `O=C(Nc1ccc(S(=O)(=O)N2CCOCC2)cc1)c1cccc(Br)c1`
-4.91

State the recorded cell number change for this entry: `Cc1nnc(NC(=O)CSc2ccc(-c3ccco3)nn2)s1`
17.1

State the recorded cell number change for this entry: `CC[n+]1c(/C=C/C=C/N(C(C)=O)c2ccccc2)sc2ccccc21`
10.1

State the recorded cell number change for this entry: `COc1cccc(NC(=O)[C@@H]2CCCN2C(=O)[C@@H]2Cc3ccccc3CN2C(=O)OC(C)(C)C)c1`
-9.43

State the recorded cell number change for this entry: `COCCSc1nnc(NC(=O)COC)s1`
-16.2

State the recorded cell number change for this entry: `COc1ccc(-n2c(O)c(/C=N/NS(=O)(=O)c3cccc([N+](=O)[O-])c3)c3ccccc3c2=O)cc1OC`
-20.8

State the recorded cell number change for this entry: `Cn1c(SCC(=O)N2CCN(c3ccccc3)CC2)nnc1-c1ccccc1`
1.56

State the recorded cell number change for this entry: `Cc1ccc2ncnc(Nc3cccc([N+](=O)[O-])c3)c2c1`
12.6

State the recorded cell number change for this entry: `NC(=O)Cn1cc(/C=N\NS(=O)(=O)c2cccc([N+](=O)[O-])c2)c2ccccc21`
1.79

State the recorded cell number change for this entry: CC(NC(=O)c1ccccc1F)c1nnc(SCC(=O)NC2=NCCS2)n1C (centres undefined)
-19.7

State the recorded cell number change for this entry: `COc1ccc(C(=O)NCc2nnc(SCC(=O)Nc3cccc(C(F)(F)F)c3)o2)cc1OC`
0.944

State the recorded cell number change for this entry: `O=C1N/C(=N/O)S/C1=C/c1cccnc1`
16

State the recorded cell number change for this entry: COc1ccc(CNC(=O)C(c2cccc(C)c2)N(C(=O)c2csnn2)C2CC2)cc1 (centres undefined)
16.2

State the recorded cell number change for this entry: Cc1cccc(NC(=O)c2ccc3c(=O)n(CC4CCCO4)c(=S)[nH]c3c2)c1 (centres undefined)
0.855

State the recorded cell number change for this entry: `Cc1ccc2c(c1)N(CC(=O)NCCC1=CCCCC1)C(=O)c1cccnc1O2`
12.4

State the recorded cell number change for this entry: `O=C(Cn1cc(S(=O)(=O)Cc2ccccc2F)c2ccccc21)N1CCOCC1`
9.64

State the recorded cell number change for this entry: `C/C(N)=C(/C#N)C(=O)COC(=O)c1ccc(NC(N)=O)cc1`
13.4

State the recorded cell number change for this entry: `C=CCn1c(C)c(C(C)=O)c(N2CCCC2)nc1=S`
0.195

State the recorded cell number change for this entry: `O=C(O)c1cccc(Nc2ncnc3ccc(Br)cc23)c1`
-2.61

State the recorded cell number change for this entry: `O=C(NCC1CC1)c1onc(CSc2nc3ccccc3[nH]2)c1C(=O)NCC1CC1`
-10.5

State the recorded cell number change for this entry: CCCCCNC(=O)c1ccc2c(=O)n(CC3CCCO3)c(=S)[nH]c2c1 (centres undefined)
12.5

State the recorded cell number change for this entry: `CCOC(=O)c1nn(-c2ccc(C)c(C)c2)c(=O)c(C#N)c1C`
-19.4

State the recorded cell number change for this entry: `O=C(O)c1cccc(Nc2ncnc3ccccc23)c1`
-4.45

State the recorded cell number change for this entry: `Cc1ccc2ncnc(Nc3cccc(C(=O)O)c3)c2c1`
-1.09

State the recorded cell number change for this entry: `CCn1c(C)[n+](CC)c2ccc(C(=O)N(C)c3ccccc3)cc21`
19.5

State the recorded cell number change for this entry: `CC(C)C(=O)Nc1nc(-c2ccc(S(=O)(=O)N3CCOCC3)cc2)cs1`
-31.7

State the recorded cell number change for this entry: `COC(CNC(=O)c1ccc(N2CCc3ccccc32)c([N+](=O)[O-])c1)OC`
-26.9

State the recorded cell number change for this entry: `C=CCn1c(C)c(C(C)=O)c(N2CCN(c3ccccc3)CC2)nc1=S`
-14.3
